Origin of the recorded values: the nanobody polyreactivity screen of Harvey et al. (2022)

- procedure_details: yeast display, Sf9 membrane polyspecificity reagent, FACS + sequencing; frameworks hold sequencing errors
property_measured: polyreactivity (PSR sort gate)

biosequence=QVQLVESGGGLVQAGGSLRLSCAASGSTFSRNAMGWYRQAPGKERELVAAITQSGGRTYYADSVKGRFTISRDNAKNTVYLQMNSLKPEDTAVYYCNARGRRSGYISGYDYWGQGTQVTVSS property_measured="polyreactivity (PSR sort gate)" recorded_result="high polyreactivity"
biosequence=QVQLVESGGGLDQAGGSLRLSCAASGFIFNKYALGRSRQAPGTEREFVATIRRDGSTNYADSVKGRFTISRDNAKNTVYLQMNSLKPEDTAVYSCAKRPWYHADWWDDHWGQGTQVTVSS property_measured="polyreactivity (PSR sort gate)" recorded_result="high polyreactivity"
biosequence=QVQLVESGGGLVQAGGSLRLSCAASGRSFTGNAMGWYRQAPGKERELVAAISWRGARTYYADSVKGRFTISRDNAKNTVYFQMNSLKPVDTGVYYCAAAYRGYARHDYWGQGTQVTVSS property_measured="polyreactivity (PSR sort gate)" recorded_result="high polyreactivity"
biosequence=QVQLVESGGGLVQAGGSLRLSCAASGRIFNYYDMGWYRQAPGKERELVAAISSGGTTYYADSVKGRFTISRDNAKNTVYLQMNCLKREDTAVYFCASYYTPQRLRSGKFDYWGQGTQVTVST property_measured="polyreactivity (PSR sort gate)" recorded_result="high polyreactivity"
biosequence=QDQLVESGGGLVQAGGSLRLSCAASGRTFAKSAMGWYRQAPGKERELVASISRRGGSTYYADSVKGRFTISRDNAKNTVYLQMNSLKPEDTAVYYCNAVVTVNGYDSWGQGTQVTVSS property_measured="polyreactivity (PSR sort gate)" recorded_result="high polyreactivity"
biosequence=QVQLVESGGGLVQAGGSLRLSCAASGIFTRYAMGWYRQAPGKERELVAAISRGGGSTYYADSVKGRFTISRDNAKNTVYLQMNSLKPEDTAVYYCNTYKRPRSPGPKFYYWGQGTQVTVSS property_measured="polyreactivity (PSR sort gate)" recorded_result="high polyreactivity"
biosequence=QVQLVESGGGLVQARGSLLLSSAASGLIFQTYTMGWYRQAPGKERELVAAITSSGGRTYYADSVKGRFTISRDNAKNSVFLQKNSLKPEDTAVYYCAARRPPSAGMGYWGQGTQVTVSS property_measured="polyreactivity (PSR sort gate)" recorded_result="high polyreactivity"
biosequence=QVQLVESGGGLVQAGGSLRLSCAASGFIFTDYAMGWYRQAPGKERELVATISWSGSSTYYADSVKGRFTISRDNAKNTVYLQMNSLKPEDTAVYYCAAEFWYTYPYLVDYWGQGTKVTVSS property_measured="polyreactivity (PSR sort gate)" recorded_result="low polyreactivity"
biosequence=QVQLVESGGGLVQAGGSLRLSCAASGNIFESYGMGWYRHAPGKERELVATINTSSGSTYDADSVKGRFTISRDNAKNTVYLQMNSLKPEDTAVYYCAAEWYPYPWGYGYWGQGTQVTVSS property_measured="polyreactivity (PSR sort gate)" recorded_result="low polyreactivity"
biosequence=QVQLVDSGGGLVQAGGSLRLSCAASGIIFRAYAMGWSRAAPGKERELVAAISRRGSTTYYADSVKGRFTISRDNAKNTVYLQMNSLKPEDTAVYFCAADYAGPTGFDYWGQGTQVTVSS property_measured="polyreactivity (PSR sort gate)" recorded_result="high polyreactivity"
biosequence=QVQLVESGGGLVQARGSLRLSCAASGSTFVGYAMGWYRQAPGKEREFVAAITRGGSTNYADSVKGRFTISRDNAKNTVYLQMNSLKPEDTAVYYCAARDRREGFNFDYWGQGTQVTVSS property_measured="polyreactivity (PSR sort gate)" recorded_result="low polyreactivity"
